Target: UniProtKB P51143
Sequence (P51143 whole entry): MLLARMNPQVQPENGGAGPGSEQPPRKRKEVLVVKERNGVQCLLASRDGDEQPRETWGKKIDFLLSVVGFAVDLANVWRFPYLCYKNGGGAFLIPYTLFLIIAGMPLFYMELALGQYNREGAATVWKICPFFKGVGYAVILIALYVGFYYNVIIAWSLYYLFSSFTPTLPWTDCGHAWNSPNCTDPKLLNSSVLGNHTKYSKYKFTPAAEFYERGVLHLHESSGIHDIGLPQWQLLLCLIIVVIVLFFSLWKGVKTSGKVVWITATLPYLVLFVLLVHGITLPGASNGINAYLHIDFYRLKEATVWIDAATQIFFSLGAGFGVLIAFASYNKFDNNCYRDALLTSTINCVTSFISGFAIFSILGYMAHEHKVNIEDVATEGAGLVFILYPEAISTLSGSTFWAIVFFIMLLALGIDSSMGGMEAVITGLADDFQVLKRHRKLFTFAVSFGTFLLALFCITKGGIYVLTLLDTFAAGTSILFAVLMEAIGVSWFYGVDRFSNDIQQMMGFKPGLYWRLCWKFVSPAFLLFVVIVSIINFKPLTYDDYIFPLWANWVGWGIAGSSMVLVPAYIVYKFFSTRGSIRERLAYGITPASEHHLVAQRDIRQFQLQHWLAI
Conditions: read-out: IC50, competitive inhibition of [^125I]MIBG uptake; UVW-NAT cells, 2 h at 37 °C, unlabeled compound 10^−9 to 10^−3 M
pIC50: −log10 of the molar value.
Parameter pIC50: see the listing below.
valueType: pIC50

cpdsmiles=N=C(N)NCc1cccc(I)c1 reportedmeasurement=5.82
cpdsmiles=N=C(N)NCc1ccc(OCCCF)c(Br)c1 reportedmeasurement=4.96
cpdsmiles=N=C(N)NCc1ccc(OCCCF)c(I)c1 reportedmeasurement=4.70

The origin of these recorded values is paper PMC4481138.
